Biological target: human A2BAR (Homo sapiens, UniProt P29275)
Construct: host or cells: CHO-spap
Sequence (P29275 whole entry): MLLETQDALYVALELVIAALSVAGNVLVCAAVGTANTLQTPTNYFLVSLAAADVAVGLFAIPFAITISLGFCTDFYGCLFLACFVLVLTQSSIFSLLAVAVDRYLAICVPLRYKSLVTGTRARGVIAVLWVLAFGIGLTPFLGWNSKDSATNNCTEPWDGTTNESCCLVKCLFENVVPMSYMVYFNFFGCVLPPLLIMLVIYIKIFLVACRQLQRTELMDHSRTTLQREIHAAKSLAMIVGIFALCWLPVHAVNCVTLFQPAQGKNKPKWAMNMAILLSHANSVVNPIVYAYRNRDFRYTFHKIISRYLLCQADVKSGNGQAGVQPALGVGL
Experiment: [3H]PSB-603 competition association assay
Type: binding
Settings: read-out: koff (converted)
Attribute measured: log10 koff (log10 of the value in s⁻¹)
The figures below represent log10 of koff, where koff is stated in s⁻¹.

Illustrative cases are given below, each with its answer.
CCCn1c(=O)c2[nH]c(-c3ccc(OCC(=O)NCc4ccc(C)cc4)cc3)nc2n(CCC)c1=O ... -3.12
CCCn1c(=O)c2[nH]c(-c3ccc(OCC(=O)NC(c4ccccc4)c4ccccc4)cc3)nc2n(CCC)c1=O ... -3.05
CCCn1c(=O)c2[nH]c(-c3ccc(OCC(=O)NCc4ccc(O)c(O)c4)cc3)nc2n(CCC)c1=O ... -2.78
CCCn1c(=O)c2[nH]c(-c3ccc(OCC(=O)Nc4ccc(C(=O)NC)cc4)cc3)nc2n(CCC)c1=O ... -2.68
CCCn1c(=O)c2[nH]c(-c3ccc(OCC(=O)NCc4ccc(Br)cc4)cc3)nc2n(CCC)c1=O ... -3.14

Form: molecule = `CCCn1c(=O)c2[nH]c(-c3ccc(OCC(=O)NC4CC4)cc3)nc2n(CCC)c1=O` ; log10 koff = -1.75
